# System: Bacillus subtilis ATCC 6051
# Assay type: cell-based
# condition_label: ATCC 6051, 24 h
# Procedure: After the purification and characterization of the new analogs by MALDI-TOF, their antimicrobial activity was tested against two gram-positive bacteria strains, Staphylococcus aureus and Bacillo subtilis, as well as two gram-negative strains, namely Escherichia coli and Pseudomonas aeruginosa (Table 1). […] The MIC was then recorded as the lowest concentration at which no visible growth occurred. […]
Assignment: determine reported Minimum Inhibitory Concentration (MIC) B. subtilis ATCC 6051 for the given compounds.
Only the number, expressed in µg/mL, is required.

Minimum Inhibitory Concentration (MIC) B. subtilis ATCC 6051 reading for CC[C@H](C)[C@H](NC(=O)[C@H](N)Cc1ccccc1)C(=O)N[C@@H](CO)C(=O)N[C@H](CCC(N)=O)C(=O)N[C@@H](C(=O)N[C@H](C(=O)N[C@@H](CO)C(=O)N[C@H]1C(=O)N[C@@H](C)C(=O)N[C@@H](CCCNC(=N)N)C(=O)N[C@@H]([C@@H](C)CC)C(=O)O[C@H]1C)[C@@H](C)CC)[C@@H](C)CC [compound 2, D-Phe-Arg10-teixobactin] : 1

Short answer for CCCCCCCCCCN(CCCCCCCCCC)[C@H](Cc1ccccc1)C(=O)N[C@H](C(=O)N[C@@H](CO)C(=O)N[C@H](CCC(N)=O)C(=O)N[C@@H](C(=O)N[C@H](C(=O)N[C@@H](CO)C(=O)N[C@H]1C(=O)N[C@@H](C)C(=O)N[C@@H](CCCNC(=N)N)C(=O)N[C@@H]([C@@H](C)CC)C(=O)O[C@H]1C)[C@@H](C)CC)[C@@H](C)CC)[C@@H](C)CC [compound 6, N-De2-D-Phe-Arg10-teixobactin] : Minimum Inhibitory Concentration (MIC) B. subtilis ATCC 6051 was 128

// Minimum Inhibitory Concentration (MIC) B. subtilis ATCC 6051 value for CC[C@H](C)[C@H](NC(=O)[C@@H](Cc1ccccc1)NC)C(=O)N[C@@H](CO)C(=O)N[C@H](CCC(N)=O)C(=O)N[C@@H](C(=O)N[C@H](C(=O)N[C@@H](CO)C(=O)N[C@H]1C(=O)N[C@@H](C)C(=O)N[C@@H](CCCNC(=N)N)C(=O)N[C@@H]([C@@H](C)CC)C(=O)O[C@H]1C)[C@@H](C)CC)[C@@H](C)CC [compound 1, N-Me-D-Phe-Arg10-teixobactin] : 0.5

Source of measurements: paper PMC6151525
